koff by entry:
# assaySystem: T1, HU-RAGE-SA (human, UniProt Q15109 23-342)
# T1 construct: extracellular domain; Directly immobilized on a CM5 chip (~100 RU); also called hRAGE-SA; soluble human streptavidin-tagged RAGE; not shown: streptavidin tag (SA)
# T1 sequence (Q15109 23-342): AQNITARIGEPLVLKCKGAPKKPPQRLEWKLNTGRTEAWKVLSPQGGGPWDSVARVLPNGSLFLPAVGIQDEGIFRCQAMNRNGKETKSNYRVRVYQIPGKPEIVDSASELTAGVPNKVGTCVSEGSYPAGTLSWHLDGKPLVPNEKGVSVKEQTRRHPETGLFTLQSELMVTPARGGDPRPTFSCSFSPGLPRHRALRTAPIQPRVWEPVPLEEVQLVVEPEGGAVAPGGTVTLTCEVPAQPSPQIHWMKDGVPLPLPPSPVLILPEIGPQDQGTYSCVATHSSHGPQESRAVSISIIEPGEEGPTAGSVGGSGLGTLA
# methodDescription: BIAcore, 10 nM scFv-Fc over directly immobilized HU-RAGE-SA, 1:1 fit
Answer in s⁻¹, number only, no unit symbol.

Query: Any idea what its koff is? The binder is 6C3 scFv-Fc fusion (Fc fusion, not shown: wild-type human IgG Fc (hinge and constant domains)) DIQMTQSPSSLSASVGDRVTITCRASQDVGIYVNWFQQKPGKAPRRLIYRATNLADGVPSRFSGSRSGTDFTLTISSLQPEDFATYYCLEFDEHPLTFGGGTKVEIKDGGGSGGGGSGGGGSSEVQLVESGGGLVQPGGSLRLSCAASGFTFNNYWMTWVRQAPGKGLEWVASIDNSGDNTYYPDSVKDRFTISRDNAKNSLYLQMNSLRAEDTAVYYCARGGDITLGLDVWGQGTLVTVSS
Result: 0.000488

Query: Which koff reading was recorded for the binder 6C2 scFv-Fc fusion (Fc fusion, not shown: wild-type human IgG Fc (hinge and constant domains)) DIQMTQSPSSLSASVGDRVTITCRASQDVGIYVNWFQQKPGKAPRRLIYRATNLADGVPSRFSGSRSGTDFTLTISSLQPEDFATYYCLEFDEHPLTFGGGTKVEIKDGGGSGGGGSGGGGSSEVQLVESGGGLVQPGGSLRLSCAASGFTFNNYWMTWVRQAPGKGLEWVASIDNSGDNTYYPDSVKDRFTISRDNAKNSLYLQMNSLRAEDTAVYYCARGGDIKVSLDRWGQGTLVTVSS ?
Result: 0.00153

Query: Sample 3B3 scFv-Fc fusion (Fc fusion, not shown: wild-type human IgG Fc (hinge and constant domains)) DIQMTQSPSSLSASVGDRVTITCRASQDVGFYVNWFQQKPGKAPRRLIYRATNLADGVPSRFSGSRSGTDFTLTISSLQPEDFATYYCLEFDEHPLTFGGGTKVEIKDGGGSGGGGSGGGGSSEVQLVESGGGLVQPGGSLRLSCAASGFTFNNYWMTWVRQAPGKGLEWVASIDNSGDNTYYPDSVKDRFTISRDNAKNSLYLQMNSLRAEDTAVYYCARGGDITTGLDYWGQGTLVTVSS — what was its koff?
Result: 0.00649
